Protocol Summary: Biodistribution after day 3 in mouse muscle
Type: ADME, organism-based, Muscle tissue
Reported Endpoint: concentration at 3 day (ng/g)
Give bare numbers, in ng/g.

Record excerpt, results attached:
1. C=CC1=C(C)c2cc3nc(cc4[nH]c(cc5[nH]c(cc1n2)c(C)c5CCC(=O)NC1C(O)OC(CO)C(O)C1O)c(CCC(=O)NC1C(O)OC(CO)C(O)C1O)c4C)C(C=C)=C3C (stereo not drawn) = 4200
2. CCc1c(CC)c2cc3nc(cc4[nH]c(c(C)c4CC)c4[nH]c(cc5nc(cc1[nH]2)C(CCC(=O)NCCOCCOCCO)=C5C)c(CC)c4C)C(C)=C3CCC(=O)NCCOCCOCCO = 9300

Attention now shifts to the item below.
Problem: What value of concentration at 3 day has been reported for the following compound? CCc1c(CC)c2cc3nc(cc4[nH]c(c(C)c4CC)c4[nH]c(cc5nc(cc1[nH]2)C(CCC(=O)N(CCO)CCO)=C5C)c(CC)c4C)C(C)=C3CCC(=O)N(CCO)CCO
Solution: 760

// data source = ChEMBL document CHEMBL1135601
